Values were extracted from patent US20240018161A1.

target: CFTR-mediated chloride transport in human intestinal epithelial enteroid cells (Homo sapiens, UniProt P13569); test: Membrane potential dye, Enteroid Assay A; assay type: cell-based; details: Enteroid Assay A
Sequence (P13569 with tags, fused parts or gaps DEL508-508): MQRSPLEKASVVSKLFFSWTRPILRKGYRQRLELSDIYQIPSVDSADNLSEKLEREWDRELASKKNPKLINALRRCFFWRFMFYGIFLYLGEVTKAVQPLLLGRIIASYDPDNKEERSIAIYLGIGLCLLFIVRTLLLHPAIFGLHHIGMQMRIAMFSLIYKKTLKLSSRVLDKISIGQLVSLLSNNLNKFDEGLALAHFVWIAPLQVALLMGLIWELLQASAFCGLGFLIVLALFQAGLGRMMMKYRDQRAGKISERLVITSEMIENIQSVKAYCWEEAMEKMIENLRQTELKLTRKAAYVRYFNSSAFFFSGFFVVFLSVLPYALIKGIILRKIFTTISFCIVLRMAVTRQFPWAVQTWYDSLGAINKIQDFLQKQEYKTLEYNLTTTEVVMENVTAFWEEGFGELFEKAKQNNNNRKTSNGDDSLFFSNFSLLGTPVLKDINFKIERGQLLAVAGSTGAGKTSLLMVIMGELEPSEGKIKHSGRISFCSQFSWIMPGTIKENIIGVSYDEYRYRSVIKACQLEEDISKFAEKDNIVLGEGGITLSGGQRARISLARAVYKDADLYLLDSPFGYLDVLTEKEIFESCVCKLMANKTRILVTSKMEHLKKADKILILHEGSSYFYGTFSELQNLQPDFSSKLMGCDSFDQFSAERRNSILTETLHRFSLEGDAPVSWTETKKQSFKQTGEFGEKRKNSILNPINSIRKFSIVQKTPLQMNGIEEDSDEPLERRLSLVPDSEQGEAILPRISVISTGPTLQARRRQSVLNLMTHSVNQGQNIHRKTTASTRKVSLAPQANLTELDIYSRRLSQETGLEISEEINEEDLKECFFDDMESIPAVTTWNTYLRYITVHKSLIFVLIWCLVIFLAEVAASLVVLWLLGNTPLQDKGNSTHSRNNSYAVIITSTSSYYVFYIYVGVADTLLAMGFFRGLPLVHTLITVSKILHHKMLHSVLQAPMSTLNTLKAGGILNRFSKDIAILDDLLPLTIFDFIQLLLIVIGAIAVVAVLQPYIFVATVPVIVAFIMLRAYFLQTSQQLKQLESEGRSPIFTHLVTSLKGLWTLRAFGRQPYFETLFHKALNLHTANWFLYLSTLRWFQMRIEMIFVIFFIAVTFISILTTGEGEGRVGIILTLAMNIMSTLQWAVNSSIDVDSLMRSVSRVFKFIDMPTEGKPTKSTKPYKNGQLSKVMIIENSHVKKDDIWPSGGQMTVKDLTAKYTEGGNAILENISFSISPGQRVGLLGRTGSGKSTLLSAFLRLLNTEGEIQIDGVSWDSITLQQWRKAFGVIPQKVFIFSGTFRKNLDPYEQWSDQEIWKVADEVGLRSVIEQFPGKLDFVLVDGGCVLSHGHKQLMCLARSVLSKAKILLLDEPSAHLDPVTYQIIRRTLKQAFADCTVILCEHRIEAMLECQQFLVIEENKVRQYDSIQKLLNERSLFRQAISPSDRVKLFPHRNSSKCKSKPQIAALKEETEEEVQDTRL
Assay Readout: Ent. A Max Activity (%)

As a guide, the following entries are already answered.
Compound	Ent. A Max Activity (%)
Cc1cccc(C)c1-c1cc2nc(n1)NS(=O)(=O)c1cccc(c1)C(=O)N1CCN(C(=O)C(C)(C)C)C[C@H](C1)O2	+++ (+++ is >600%)
Cc1cccc(C)c1-c1cc2nc(n1)NS(=O)(=O)c1cccc(c1)C(=O)N1C[C@@H](CN(C3CC4(CCCC4)C3)[C@@H](CC(C)C)C1)O2	+++ (+++ is >600%)
Cc1cccc(C)c1-c1cc2nc(n1)NS(=O)(=O)c1cccc(c1)CN1CC(CN(C3CCC(F)(F)CC3)CC1=O)O2 (centres unmarked)	++ (++ is 30-60%)
Cc1cccc(C)c1-c1cc2nc(n1)NS(=O)(=O)c1cccc(c1)C(=O)N1CCN(C3CCC(F)CC3)C[C@H](C1)O2 (some centres unmarked)	+++ (+++ is >600%)
Cc1cccc(C)c1-c1cc2nc(n1)NS(=O)(=O)c1cccc(c1)C(=O)N1CCN(C3CCC(F)(F)CC3)C[C@H](C1)O2	+++ (+++ is >600%)
Cc1cccc(C)c1-c1cc2nc(n1)NS(=O)(=O)c1cccc(c1)C(=O)N1C[C@@H](CN(C(=O)OC(C)(C)C)C[C@@H]1C(C)C)O2	++ (++ is 30-60%)

**Q:** For the compound shown here, Cc1cccc(C)c1-c1cc2nc(n1)NS(=O)(=O)c1cccc(c1)C(=O)N1CCCN(Cc3ccccc3)CC(C1)O2 (centres unmarked) , give the reported Ent. A Max Activity (%).
**A:** ++ (++ is 30-60%)

**Q:** Here is the next compound: Cc1cccc(C)c1-c1cc2nc(n1)NS(=O)(=O)c1cccc(c1)C(=O)N1CCN(CCC(C)(C)C)C[C@@H](O2)[C@H]1CC(C)C
**A:** +++ (+++ is >600%)

**Q:** Next compound: Cc1cccc(C)c1-c1cc2nc(n1)NS(=O)(=O)c1cccc(c1)C(=O)N1CC3CN(Cc4ccccc4)CC3(C1)O2 (centres unmarked)
**A:** +++ (+++ is >600%)

**Q:** Note, next up: CCCCN1CCN2C[C@@H](C1)Oc1cc(-c3c(C)cccc3C)nc(n1)NS(=O)(=O)c1cccc(c1)C2=O
**A:** +++ (+++ is >600%)

**Q:** Thanks! And Cc1cccc(C)c1-c1cc2nc(n1)NS(=O)(=O)c1cccc(c1)C(=O)N1CCN(CCC(C)(C)C)C[C@H](O2)[C@H]1CC(C)C ?
**A:** +++ (+++ is >600%)

**Q:** # iterate: Cc1cccc(C)c1-c1cc2nc(n1)NS(=O)(=O)c1cccc(c1)C(=O)N1CCN(Cc3ccccc3)CC(O2)C1CC(C)C (single isomer, unassigned) [Compound 88]
**A:** ++ (++ is 30-60%)

**Q:** Similarly, Cc1cccc(C)c1-c1cc2nc(n1)NS(=O)(=O)c1cccc(c1)C(=O)N1C[C@@H](CNC[C@@H]1C(C)C)O2 ?
**A:** +++ (+++ is >600%)

**Q:** Now try Cc1cccc(C)c1-c1cc2nc(n1)NS(=O)(=O)c1cccc(c1)C(=O)N1C[C@@H](CN(C3CC4(CCCC4)C3)C[C@H]1C(C)C)O2 .
**A:** ++ (++ is 30-60%)
